All values here come from PubChem BioAssay (NCATS).

- experiment_notes: Primary qHTS for inhibitors of MERS-S pseudo-typed particle cell entry (AID 1479149); also: nearly all actives have a fitted effect of over 60% in size
- experimental_conditions: MERS-S pseudotyped particle entry, luciferase; at 57.1 µM (top of the series) unless noted
Records with an inconclusive call do not appear. The source made the active and inactive calls. Calls follow the shape of the full dose curve.
measure: outcome

Before answering, review these 4 worked examples.
compound	result
C[N+](C)(C)CCOP(=O)([O-])OP(=O)(O)OC[C@H]1OC(n2ccc(N)nc2=O)[C@H](O)[C@@H]1O (some centres not stated)	inactive [at 0.573 µM]
NC[C@@H]1O[C@H](O[C@H]2[C@@H](O)[C@H](O[C@@H]3[C@@H](O)[C@H](N)C[C@H](N)[C@H]3O[C@H]3O[C@H](CO)[C@@H](O)[C@H](O)[C@H]3N)O[C@@H]2CO)[C@H](N)[C@@H](O)[C@@H]1O	inactive [at 0.573 µM]
CCC(CC)[C@H](NC(C)=O)[C@@H]1[C@H](O)[C@@H](C(=O)O)C[C@H]1N=C(N)N	inactive [at 0.573 µM]
CC(C)OC(=O)CCC/C=C\C[C@@H]1[C@@H](CC[C@@H](O)CCc2ccccc2)[C@H](O)C[C@@H]1O	inactive [at 11.4 µM]

Consider the record given below.
Task: Consider the compound CCC(=O)O[C@@H](OP(=O)(CCCCc1ccccc1)CC(=O)N1C[C@H](C2CCCCC2)C[C@H]1C(=O)O)C(C)C (some centres not stated) and give its measured outcome.
Output: inactive [at 11.4 µM]

----------
- assay_system: Glucocorticoid receptor (Homo sapiens)
- experiment_notes: qHTS assay for small molecule agonists of glucocorticoid receptor signaling (AID 588532);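 also: 100% = dexamethasone at 0.1 µM and 0% = DMSO only wells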
- experimental_conditions: HeLa MMTV-bla, beta-lactamase ratio, agonist, 18 h; stronger effect = higher value; percent of dexamethasone control, DMSO zero
Records with an inconclusive call do not appear.
measure: activation (%)
Return type: number; implicit unit %.

Task: Consider the compound C=CC(=C)C and give its measured activation.
Output: -4.98

Task: Consider the compound CNC(=O)Oc1cccc2c1OC(C)(C)O2 and give its measured activation.
Output: -2.85

Task: Consider the compound c1ccc2c(c1)CCCC2 and give its measured activation.
Output: 3.9

Task: Consider the compound CCSC(=O)Cl and give its measured activation.
Output: 17.3

Task: Consider the compound C=CC(=O)OCC and give its measured activation.
Output: 2.08

Task: Consider the compound O=S1OCC2C(CO1)C1(Cl)C(Cl)=C(Cl)C2(Cl)C1(Cl)Cl (stereo not given) and give its measured activation.
Output: 7.98

Task: Consider the compound O=C(O)CC(O)(CC(=O)O)C(=O)O and give its measured activation.
Output: 1.56

Task: Consider the compound CC(Cl)Cl and give its measured activation.
Output: -9.28

Task: Consider the compound C[C@]12CC[C@H]3[C@@H](CCC4=CC(=O)CC[C@@]43C)[C@@H]1CC[C@@H]2O and give its measured activation.
Output: -9.17

Task: Consider the compound NC(=S)Nc1ccccc1 and give its measured activation.
Output: 11.7

Task: Consider the compound OCC1CO1 (stereo not given) and give its measured activation.
Output: -12

Task: Consider the compound S=C=Nc1cccc2ccccc12 and give its measured activation.
Output: 2.48

Task: Consider the compound O=C(O)C1C2CCC(O2)C1C(=O)O (stereo not given) and give its measured activation.
Output: -13.9

Task: Consider the compound OCC(Br)CBr (stereo not given) and give its measured activation.
Output: 4.78

Task: Consider the compound ClC1=C(Cl)C2(Cl)C3C4CC(C5OC45)C3C1(Cl)C2(Cl)Cl (stereo not given) and give its measured activation.
Output: -5.87

----------
- assay_system: Rap guanine nucleotide exchange factor 3 (Homo sapiens) (UniProt O95398)
- Sequence (O95398 whole entry, looked up): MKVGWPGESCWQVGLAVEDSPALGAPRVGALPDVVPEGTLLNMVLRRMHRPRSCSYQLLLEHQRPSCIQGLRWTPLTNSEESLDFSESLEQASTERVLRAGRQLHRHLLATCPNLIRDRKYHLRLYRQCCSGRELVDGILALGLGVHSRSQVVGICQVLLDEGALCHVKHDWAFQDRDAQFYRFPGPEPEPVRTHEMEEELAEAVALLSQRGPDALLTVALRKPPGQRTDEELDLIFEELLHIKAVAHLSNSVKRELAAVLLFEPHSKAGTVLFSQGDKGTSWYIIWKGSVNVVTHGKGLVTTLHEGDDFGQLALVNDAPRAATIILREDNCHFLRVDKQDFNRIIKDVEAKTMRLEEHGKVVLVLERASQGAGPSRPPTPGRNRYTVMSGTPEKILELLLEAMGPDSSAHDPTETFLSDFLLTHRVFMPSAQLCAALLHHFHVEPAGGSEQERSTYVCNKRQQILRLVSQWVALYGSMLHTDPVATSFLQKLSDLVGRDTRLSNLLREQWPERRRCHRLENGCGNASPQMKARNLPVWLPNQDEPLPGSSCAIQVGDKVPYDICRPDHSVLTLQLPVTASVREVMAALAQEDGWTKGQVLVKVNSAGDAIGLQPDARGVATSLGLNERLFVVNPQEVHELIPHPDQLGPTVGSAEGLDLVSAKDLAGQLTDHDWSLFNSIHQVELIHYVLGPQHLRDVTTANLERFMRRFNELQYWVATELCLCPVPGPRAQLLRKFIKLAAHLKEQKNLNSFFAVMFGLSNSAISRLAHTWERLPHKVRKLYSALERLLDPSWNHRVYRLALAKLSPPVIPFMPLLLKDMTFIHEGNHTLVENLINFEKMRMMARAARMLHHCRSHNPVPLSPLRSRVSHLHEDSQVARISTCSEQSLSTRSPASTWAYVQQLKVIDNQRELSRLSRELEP
- experiment_notes: Confirmatory qHTS for antagonist of cAMP-regulated guanine nucleotide exchange factor 3 (EPAC1) (AID 1645880); also: nearly all actives have a fitted effect of over 55% in size; also: potency is read from the fitted curve at half-maximal effect
- experimental_conditions: EPAC1 Rap1B-BODIPY-GDP exchange, fluorescence; series mostly up to 115 µM
Records with an inconclusive call do not appear. The source made the active and inactive calls. The call rests on the fitted dose curve; in most records, active means well fitted inhibition curve with a large enough effect; inconclusive means small, poorly fitted or top-dose-only effect; inactive means no such curve, though single readings can be large or run the other way.
measure: Potency

> print(dat)
                                   compound            result
1  O=C1Nc2ccccc2/C1=C/c1nc2ccccc2c(=O)n1-c1ccc(O)cc1  35.5 µM (active)
2  Cc1cccc(CN2C(=O)CN=C(c3ccccc3)c3ccccc32)c1          inactive
3  COc1ccc(OCC(=O)N2CCN(CC3CC4C=CC3C4)CC2)cc1 (centres undefined)          inactive
4  Cc1ccccc1N1C(=O)NC(=O)/C(=C\c2ccc3c(c2)CCCN3Cc2ccccc2)C1=O  16.9 µM (active)

----------
- Tested on: TAB109
- experiment_notes: qHTS profiling for inhibitors of Plasmodium falciparum proliferation (AID 504749); also: nearly all actives have a fitted effect of over 60% in size
- experimental_conditions: P. falciparum in erythrocytes, SYBR Green DNA, 72 h; series mostly up to 12.8 µM
Inconclusive results are not listed. Calls of active or inactive are those of the source. Calls follow the shape of the dose curve; as a rule, active = well fitted inhibition curve with a large enough effect; inconclusive = small, poorly fitted or top-dose-only effect; inactive = flat fitted curve, though single readings scatter.
// classify into T for active, F for inactive

Task: Name the outcome recorded for C[C@]12CC[C@H](OS(=O)(=O)O)CC1=CCC1C2CC[C@]2(C)C(=O)CC[C@@H]12 (some centres undefined) in the assay.
Output: F

Task: Name the outcome recorded for CN[C@@H](C)[C@H]1CC[C@@H](N)[C@@H](O[C@@H]2[C@@H](O)[C@@H](O[C@H]3OC[C@@](C)(O)[C@@H](NC)[C@@H]3O)[C@H](N)C[C@@H]2N)O1 (tested in a mixture with another compound) in the assay.
Output: F

Task: Name the outcome recorded for CCCC[N+]1(C)C2CC(OC(=O)C(CO)c3ccccc3)CC1C1OC12 (centres undefined) in the assay.
Output: F

Task: Name the outcome recorded for CN(C)[C@@H]1C(=O)C(C(N)=O)=C(O)[C@]2(O)C(=O)C3=C(O)c4c(O)ccc(Cl)c4[C@](C)(O)[C@H]3C[C@@H]12 in the assay.
Output: F

Task: Name the outcome recorded for CC[C@@]1(c2ccc(N)cc2)CCC(=O)NC1=O in the assay.
Output: F

Task: Name the outcome recorded for CNC[C@H](O)c1ccc(O)cc1 in the assay.
Output: F

Task: Name the outcome recorded for Oc1ccc2c3c1O[C@H]1[C@@H](O)CC[C@@]4(O)C(C2)N(CC2CCC2)CCC314 (some centres undefined) in the assay.
Output: F

Task: Name the outcome recorded for CNC(C)[C@@H](O)c1ccccc1 (some centres undefined) in the assay.
Output: F

Task: Name the outcome recorded for CC([C@H](O)c1ccccc1)N(C)C (some centres undefined) in the assay.
Output: F

Task: Name the outcome recorded for C[C@]12CC[C@H]3[C@@H](CCC4=CC(=O)CC[C@@]43C)[C@@H]1CC[C@@H]2O in the assay.
Output: F

Task: Name the outcome recorded for CC[C@@H]1[C@@H]2C[C@H]3[C@H]4N(C)c5ccccc5[C@@]45C[C@@H]([C@@H]2[C@@H]5O)N3[C@H]1O in the assay.
Output: F

Task: Name the outcome recorded for CO[C@@H](COC(N)=O)C1=C(N2CC2)C(=O)C(C)=C(N2CC2)C1=O in the assay.
Output: T

Task: Name the outcome recorded for CN(C)C(=O)Oc1cc(OC(=O)N(C)C)cc([C@@H](O)CNC(C)(C)C)c1 in the assay.
Output: F

Task: Name the outcome recorded for CC(C)N(CC[C@@](C(N)=O)(c1ccccc1)c1ccccn1)C(C)C in the assay.
Output: F

----------
- assay_system: Rap guanine nucleotide exchange factor 3 (Homo sapiens)
- experiment_notes: Counterscreen qHTS for antagonist of cAMP-regulated guanine nucleotide exchange factor 3 (EPAC1) (AID 1645888);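 also: fluorescence loss as bound BODIPY-GDP is released from Rap1B; % of control where 0% means no effect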
- experimental_conditions: Rap1B-BODIPY-GDP nucleotide exchange, fluorescence; series mostly up to 154 µM
Inconclusive results are not listed. Activity calls are given as the source filed them. The call rests on the fitted dose curve; in most records, active means well fitted inhibition curve with a large enough effect; inconclusive means small, poorly fitted or top-dose-only effect; inactive means no such curve, though single readings can be large or run the other way.
measure: activity change, negative = inhibition

> print(dat)
                                   compound                          result
1  CCN1/C(=C/C=C/C2=[N+](CC)c3ccccc3C2(C)C)C(C)(C)c2ccccc21                        inactive
2  O=c1[nH]c(=S)n(-c2ccccc2F)c(O)c1C=Nc1ccc(N2CCOCC2)cc1  -4.47% [at 30.8 µM] (inactive)
3  CCOC(=O)[C@]12Cc3cc(Cl)ccc3[C@H]1N(C(C)C)C(=O)c1ccccc12                        inactive
4  CC1=C(O)C(=O)C=C2C1=CC=C1C2(C)CCC2(C)C3CC(C)(C(=O)O)CCC3(C)CCC12C (centres undefined)                        inactive

----------
- Test system: CP191
- experiment_notes: qHTS profiling for inhibitors of Plasmodium falciparum proliferation (AID 504749); also: nearly all actives have a fitted effect of over 60% in size
- experimental_conditions: P. falciparum in erythrocytes, SYBR Green DNA, 72 h; series mostly up to 28.7 µM
Inconclusive results are not listed. The source made the active and inactive calls. Calls follow the shape of the dose curve; as a rule, active = well fitted inhibition curve with a large enough effect; inconclusive = small, poorly fitted or top-dose-only effect; inactive = flat fitted curve, though single readings scatter.
// classify into active, inactive

Task: Name the outcome recorded for N[C@H]1C[C@H]1c1ccccc1 in the assay.
Output: inactive

Task: Name the outcome recorded for COc1cc2c(cc1OC)[C@@]13CCN4CC5=CCOC6CC(=O)N2C1[C@H]6[C@@H]5C[C@@H]43 (some centres not stated) in the assay.
Output: inactive

Task: Name the outcome recorded for C=CC1CN2CCC1CC2C(OC(=O)OCC)c1ccnc2ccc(OC)cc12 (configuration not stated) in the assay.
Output: active

Task: Name the outcome recorded for CNC(C)[C@@H](O)c1ccccc1 (some centres not stated) in the assay.
Output: inactive

Task: Name the outcome recorded for C[C@@]12CCC(=O)C=C1C=C[C@H]1[C@H]3CC[C@](O)(CCC(=O)O)[C@]3(C)CC[C@@H]12 in the assay.
Output: inactive

Task: Name the outcome recorded for CO[C@@H](COC(N)=O)C1=C(N2CC2)C(=O)C(C)=C(N2CC2)C1=O in the assay.
Output: active

Task: Name the outcome recorded for CCN[C@]1(c2cccs2)CCCCC1=O in the assay.
Output: inactive
